# SYSTEM_TESTED: SMARCA2 (Homo sapiens, UniProt P51531)
# Sequence (P51531 whole entry): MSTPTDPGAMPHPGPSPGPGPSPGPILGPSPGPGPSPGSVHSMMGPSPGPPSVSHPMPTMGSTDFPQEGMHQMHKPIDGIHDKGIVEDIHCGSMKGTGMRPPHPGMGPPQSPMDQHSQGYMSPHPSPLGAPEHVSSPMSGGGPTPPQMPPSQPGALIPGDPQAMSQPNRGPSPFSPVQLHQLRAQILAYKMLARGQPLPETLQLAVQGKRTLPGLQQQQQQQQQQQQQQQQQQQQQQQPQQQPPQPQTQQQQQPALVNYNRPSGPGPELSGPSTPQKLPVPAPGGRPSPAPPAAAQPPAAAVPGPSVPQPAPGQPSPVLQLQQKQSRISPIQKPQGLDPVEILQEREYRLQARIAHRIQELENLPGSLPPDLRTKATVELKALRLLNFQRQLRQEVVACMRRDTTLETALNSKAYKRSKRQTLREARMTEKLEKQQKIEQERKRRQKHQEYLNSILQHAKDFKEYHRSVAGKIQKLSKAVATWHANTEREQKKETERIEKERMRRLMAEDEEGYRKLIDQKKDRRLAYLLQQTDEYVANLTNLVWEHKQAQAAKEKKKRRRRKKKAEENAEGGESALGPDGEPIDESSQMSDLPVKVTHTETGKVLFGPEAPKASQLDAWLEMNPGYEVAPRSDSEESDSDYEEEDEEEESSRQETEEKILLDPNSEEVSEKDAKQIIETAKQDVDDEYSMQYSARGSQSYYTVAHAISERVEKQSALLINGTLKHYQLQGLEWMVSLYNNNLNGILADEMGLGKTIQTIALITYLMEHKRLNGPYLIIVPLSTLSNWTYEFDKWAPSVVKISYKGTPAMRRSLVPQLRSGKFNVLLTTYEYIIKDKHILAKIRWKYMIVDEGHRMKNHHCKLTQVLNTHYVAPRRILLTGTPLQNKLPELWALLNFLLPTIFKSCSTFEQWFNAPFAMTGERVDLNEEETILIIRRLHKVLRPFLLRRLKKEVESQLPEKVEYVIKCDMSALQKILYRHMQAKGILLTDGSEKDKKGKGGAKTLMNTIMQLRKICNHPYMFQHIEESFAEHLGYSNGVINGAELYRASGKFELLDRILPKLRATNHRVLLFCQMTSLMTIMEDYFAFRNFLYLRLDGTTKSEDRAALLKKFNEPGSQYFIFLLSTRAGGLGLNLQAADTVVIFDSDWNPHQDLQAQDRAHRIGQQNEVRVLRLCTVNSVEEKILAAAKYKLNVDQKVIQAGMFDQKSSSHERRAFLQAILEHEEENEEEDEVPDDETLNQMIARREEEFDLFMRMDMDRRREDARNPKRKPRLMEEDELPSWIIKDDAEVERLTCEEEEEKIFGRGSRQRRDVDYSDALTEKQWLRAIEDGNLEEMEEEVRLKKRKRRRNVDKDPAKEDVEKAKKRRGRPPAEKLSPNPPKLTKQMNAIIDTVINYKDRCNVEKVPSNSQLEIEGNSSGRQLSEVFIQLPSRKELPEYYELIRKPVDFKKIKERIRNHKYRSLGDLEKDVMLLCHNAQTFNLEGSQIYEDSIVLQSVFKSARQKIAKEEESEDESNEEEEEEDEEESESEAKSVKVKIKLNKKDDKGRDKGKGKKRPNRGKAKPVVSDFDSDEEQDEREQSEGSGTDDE
# PROTOCOL: MSD SMARCA2 degradation in A549 cell line
# Type: cell-based
# CONDITION_CONTEXT: A549 cells, 24 h, read-out: SMARCA2 MSD A549 degradation 24 h: Average external-Abs DC50

| COMPOUND | DC50 |
| --- | --- |
| C#Cc1ccc(CNC(=O)[C@@H]2C[C@@H](O)CN2C(=O)[C@H](NC(=O)[C@H]2CCC3(CC2)C[C@H](N2CCN(c4cnc(N5CCN6c7cc(-c8ccccc8O)nnc7NC[C@H]6C5)nc4)CC2)C3)C(C)(C)CCO)c(Cl)c1 (stereo partly drawn) [I-307] | > 100 nM |
| C#Cc1ccc([C@H](C)NC(=O)[C@@H]2C[C@@H](O)CN2C(=O)C(c2cc(N3CCC(N4CCC(N5CCC(CN6CCN7c8cc(-c9ccccc9O)nnc8NC[C@H]7C6)CC5)CC4)CC3)no2)C(C)C)cc1 (stereo partly drawn) | 10 to 50 nM |
| Cc1ncsc1-c1ccc(CNC(=O)[C@@H]2C[C@@H](O)CN2C(=O)[C@@H](NC(=O)N2CC3(CC(N4CCC(c5cnc(N6CCN7c8cc(-c9ccccc9O)nnc8NC[C@H]7C6)nc5)CC4)C3)C2)C(C)(C)C)cc1 | 10 to 50 nM |

----------
Listing of recorded DC50 by entry.
# SYSTEM_TESTED: SMARCA2 (Homo sapiens, UniProt P51531)
# PROTOCOL: SMARCA2 Western blot degradation in MV4-11 cells
# Format: cell-based
# Design: SMARCA2/SMARCA4 protein degradation selectivity in MV4-11 cells; endogenous in cells; host or cells: MV4-11
# CONDITION_CONTEXT: MV4-11 cells, 24 h; read-out: SMARCA2 MSD MV411 degradation 24 h: Mean external-Abs DC50

| MOLECULE | DC50 |
| --- | --- |
| C#Cc1ccc(CNC(=O)[C@@H]2C[C@@H](O)CN2C(=O)[C@@H](NC(=O)[C@H]2CC3(C2)C[C@H](N2CCC(N4CCC(N5CCN6c7cc(-c8ccccc8O)nnc7NC[C@H]6C5)CC4)CC2)C3)C(C)(C)C)c(O)c1 (single isomer, unassigned) [I-241] | 1 to 10 nM |
| Cc1ncsc1-c1ccc(CNC(=O)[C@@H]2C[C@@H](O)CN2C(=O)C(c2cc(OCCN3CCC(N4CCC(c5cnc(N6CCc7[nH]c8nnc(-c9ccccc9O)cc8c7[C@@H]6C)nc5)CC4)CC3)no2)C(C)C)cc1 (single isomer, unassigned) | < 1 nM |
| Cc1ncsc1-c1ccc(CNC(=O)[C@@H]2C[C@@H](O)CN2C(=O)[C@@H](NC(=O)C2(F)CC2)C(C)(C)C)c(O[C@H]2CC[C@H](N3CCC(c4cnc(N5CCc6[nH]c7nnc(-c8ccccc8O)cc7c6[C@@H]5C)nc4)CC3)CC2)c1 (single isomer, unassigned) | 10 to 100 nM |
| C#Cc1ccc(C2(NC(=O)[C@@H]3C[C@@H](O)CN3C(=O)[C@@H](NC(=O)[C@H]3CC4(C3)C[C@H](N3CCC(N5CCC(N6CCN7c8cc(-c9ccccc9O)nnc8NC[C@H]7C6)CC5)CC3)C4)C(C)(C)C)CC2)cc1 (single isomer, unassigned) [I-211] | 1 to 10 nM |

----------
# SYSTEM_TESTED: SMARCA4 (Homo sapiens)
# Construct: SMARCA2/SMARCA4 protein degradation selectivity in MV4-11 cells; endogenous in cells; host or cells: MV4-11
# Sequence (P51532 whole entry): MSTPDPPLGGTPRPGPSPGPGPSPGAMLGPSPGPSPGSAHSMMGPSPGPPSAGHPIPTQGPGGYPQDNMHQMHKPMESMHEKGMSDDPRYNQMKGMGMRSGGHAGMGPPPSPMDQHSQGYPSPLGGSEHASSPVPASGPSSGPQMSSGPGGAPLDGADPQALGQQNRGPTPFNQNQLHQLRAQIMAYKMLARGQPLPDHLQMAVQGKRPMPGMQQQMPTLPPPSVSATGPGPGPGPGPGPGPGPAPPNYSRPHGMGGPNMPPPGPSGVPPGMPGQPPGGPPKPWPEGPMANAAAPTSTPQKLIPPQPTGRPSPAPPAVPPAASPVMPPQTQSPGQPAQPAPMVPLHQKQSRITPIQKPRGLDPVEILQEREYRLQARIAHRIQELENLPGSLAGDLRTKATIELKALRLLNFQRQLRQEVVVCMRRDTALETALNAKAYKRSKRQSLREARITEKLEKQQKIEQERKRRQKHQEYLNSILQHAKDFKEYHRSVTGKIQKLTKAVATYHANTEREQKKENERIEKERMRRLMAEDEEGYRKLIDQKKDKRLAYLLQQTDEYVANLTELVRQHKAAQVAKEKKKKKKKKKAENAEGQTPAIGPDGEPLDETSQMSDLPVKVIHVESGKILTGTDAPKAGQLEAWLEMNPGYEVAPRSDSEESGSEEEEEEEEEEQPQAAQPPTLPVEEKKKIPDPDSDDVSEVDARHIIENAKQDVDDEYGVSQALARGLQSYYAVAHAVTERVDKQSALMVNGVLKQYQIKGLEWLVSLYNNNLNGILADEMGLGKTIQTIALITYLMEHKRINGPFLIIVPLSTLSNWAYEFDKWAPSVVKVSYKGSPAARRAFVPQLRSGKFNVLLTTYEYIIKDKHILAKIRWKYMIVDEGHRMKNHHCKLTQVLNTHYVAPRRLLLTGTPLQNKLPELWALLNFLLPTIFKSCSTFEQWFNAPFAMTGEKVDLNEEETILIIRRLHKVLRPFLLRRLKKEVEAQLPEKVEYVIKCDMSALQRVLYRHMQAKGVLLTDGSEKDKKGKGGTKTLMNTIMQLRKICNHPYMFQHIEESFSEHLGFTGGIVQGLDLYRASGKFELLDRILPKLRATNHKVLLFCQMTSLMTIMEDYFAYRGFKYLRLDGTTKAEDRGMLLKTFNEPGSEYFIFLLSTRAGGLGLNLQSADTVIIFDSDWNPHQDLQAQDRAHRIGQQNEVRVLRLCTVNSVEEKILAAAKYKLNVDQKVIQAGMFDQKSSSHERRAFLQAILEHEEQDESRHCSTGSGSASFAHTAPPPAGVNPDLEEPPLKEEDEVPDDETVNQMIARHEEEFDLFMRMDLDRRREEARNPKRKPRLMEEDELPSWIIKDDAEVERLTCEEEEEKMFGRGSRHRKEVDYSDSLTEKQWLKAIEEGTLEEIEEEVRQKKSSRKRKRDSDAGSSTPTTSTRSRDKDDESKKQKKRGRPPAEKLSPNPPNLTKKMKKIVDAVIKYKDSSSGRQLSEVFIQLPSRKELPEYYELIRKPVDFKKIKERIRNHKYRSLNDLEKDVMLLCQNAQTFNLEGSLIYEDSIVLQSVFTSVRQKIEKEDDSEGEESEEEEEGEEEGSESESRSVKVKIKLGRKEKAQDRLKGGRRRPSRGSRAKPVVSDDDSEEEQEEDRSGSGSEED
# PROTOCOL: SMARCA4 Western blot degradation in MV4-11 cells
# Assay type: cell-based
# CONDITION_CONTEXT: MV4-11, MV4-11 cells, 24 h; read-out: SMARCA4 MSD MV411 degradation 24 h: average Dmax %

| COMPOUND | SYSTEM_TESTED | Dmax |
| --- | --- | --- |
| C#Cc1ccc(CNC(=O)[C@@H]2C[C@@H](O)CN2C(=O)[C@@H](NC(=O)N2CC3(CC(CN4CCC(c5cnc(N6CCc7[nH]c8nnc(-c9ccccc9O)cc8c7[C@H]6C)nc5)CC4)C3)C2)C(C)(C)C)cc1 | SMARCA4 (Homo sapiens) | 70 to 90% |
| C#Cc1ccc([C@H](C)NC(=O)[C@@H]2C[C@@H](O)CN2C(=O)C(c2cc(N3CCC(N4CCC(N5CCC(CN6CCN7c8cc(-c9ccccc9O)nnc8NC[C@H]7C6)CC5)CC4)CC3)no2)C(C)C)cc1 (some centres unmarked) | SMARCA4 (Homo sapiens) | > 90% |
| C#Cc1ccc(CNC(=O)[C@@H]2C[C@@H](O)CN2C(=O)[C@@H](NC(=O)[C@H]2CCC3(CC2)C[C@H](N2CCN(c4cnc(N5CCN6c7cc(-c8ccccc8O)nnc7NC[C@H]6C5)nc4)CC24CC4)C3)C(C)(C)C)cc1 (some centres unmarked) | SMARCA4 (Homo sapiens) | 50 to 70% |
| C#Cc1ccc(CNC(=O)[C@@H]2C[C@@H](O)CN2C(=O)[C@@H](NC(=O)N2CC3(CC(N4CCC(c5cnc(N6CCc7[nH]c8nnc(-c9ccccc9O)cc8c7[C@H]6C)nc5)CC4)C3)C2)C(C)(C)CCN2CCN[C@H](C(=O)O)C2)cc1 | SMARCA4 (Homo sapiens) | < 50% |
| C#Cc1ccc(CNC(=O)[C@@H]2C[C@@H](O)CN2C(=O)[C@@H](NC(=O)[C@H]2CCC3(CC2)C[C@H](N2CCC(N4CCC(N5CCN6c7cc(-c8ccccc8O)nnc7NC[C@H]6C5)CC4)CC2)C3)C(C)(C)C)c(Cl)c1 (single isomer, unassigned) | SMARCA4 (Homo sapiens) | < 50% |
| C#Cc1cnc(CNC(=O)[C@@H]2C[C@@H](O)CN2C(=O)[C@@H](NC(=O)[C@H]2CCC3(CC2)C[C@H](N2CCC(c4cnc(N5CCN6c7cc(-c8ccccc8O)nnc7NC[C@H]6C5)nc4)CC2)C3)C(C)(C)C)c(OC)c1 (single isomer, unassigned) | SMARCA4 (Homo sapiens) | < 50% |
| C#Cc1cc(F)c(CNC(=O)[C@@H]2C[C@@H](O)CN2C(=O)[C@@H](NC(=O)N2CC3(CC(N4CCC(c5cnc(N6CCc7[nH]c8nnc(-c9ccccc9O)cc8c7[C@H]6C)nc5)CC4)C3)C2)C(C)(C)C)cc1F | SMARCA4 (Homo sapiens) | 70 to 90% |
| Cc1ncsc1-c1ccc(CNC(=O)[C@@H]2C[C@@H](O)CN2C(=O)C(c2cc(OCCCN3CCC(c4cnc(N5CCN6c7cc(-c8ccccc8O)nnc7NCC6C5)nc4)CC3)no2)C(C)C)cc1 (stereo in doubt) | SMARCA4 (Homo sapiens) | > 90% |
| Cc1ncsc1-c1ccc(CNC(=O)[C@@H]2C[C@@H](O)CN2C(=O)C(c2cc(N3CC4(CC(N5CCC(c6cnc(N7CCc8[nH]c9nnc(-c%10ccccc%10O)cc9c8[C@H]7C)nc6)CC5)C4)C3)no2)C(C)C)cc1 (single isomer, unassigned) | SMARCA4 (Homo sapiens) | > 90% |
| C#Cc1ccc(CNC(=O)[C@@H]2C[C@@H](O)CN2C(=O)[C@@H](NC(=O)CN2CC3(CC(N4CCC(N5CCC(N6CCN7c8cc(-c9ccccc9O)nnc8NC[C@H]7C6)CC5)CC4)C3)C2)C(C)(C)C)cc1 | SMARCA4 (Homo sapiens) | < 50% |
| C#Cc1ccc(CNC(=O)[C@@H]2C[C@@H](O)CN2C(=O)[C@@H](NC(=O)N2CC3(CC(N4CCC5(CCN(c6cnc(N7CCc8[nH]c9nnc(-c%10ccccc%10O)cc9c8C7C)nc6)C5)C4)C3)C2)C(C)(C)C)cc1 (some centres unmarked) | SMARCA4 (Homo sapiens) | 50 to 70% |
| C#Cc1ccc(CNC(=O)[C@@H]2C[C@@H](O)CN2C(=O)[C@@H](NC(=O)N2CCC(CN3CCC(N4CCC(N5CCc6[nH]c7nnc(-c8ccccc8O)cc7c6[C@H]5C)CC4)CC3)CC2)C(C)(C)C)cc1 | SMARCA4 (Homo sapiens) | < 50% |
| C#Cc1ccc(CNC(=O)[C@@H]2C[C@@H](O)CN2C(=O)[C@@H](NC(=O)C2CCC3(CC2)CC(N2CCC(N4CCC[C@@H](C(=O)N5CCN6c7cc(-c8ccccc8O)nnc7NC[C@H]6C5)C4)CC2)C3)C(C)(C)C)cc1 (single isomer, unassigned) | SMARCA4 (Homo sapiens) | < 50% |
| C#Cc1ccc([C@H](C)NC(=O)[C@@H]2C[C@@H](O)CN2C(=O)[C@@H](NC(=O)N2CC3(CC(N4CCC(c5cnc(N6CCc7[nH]c8nnc(-c9ccccc9O)cc8c7[C@H]6C)nc5)CC4)C3)C2)C(C)(C)C)c(O)c1 | SMARCA4 (Homo sapiens) | 70 to 90% |
| C#Cc1ccc(CNC(=O)[C@@H]2C[C@@H](O)CN2C(=O)[C@@H](NC(=O)[C@H]2CCC3(CC2)C[C@H](N2CCC(c4cnc(N5CCN6c7cc(-c8ccccc8O)nnc7NC[C@H]6C5)nc4)CC2)C3)C(C)(C)CCO)cc1 (single isomer, unassigned) | SMARCA4 (Homo sapiens) | 50 to 70% |
| C#Cc1ccc(CNC(=O)[C@@H]2C[C@@H](O)CN2C(=O)[C@@H](NC(=O)N2CCC(CN3CCC(N4CCc5[nH]c6nnc(-c7ccccc7O)cc6c5[C@H]4C)CC3)CC2)C(C)(C)C)cc1 | SMARCA4 (Homo sapiens) | < 50% |
| Cc1ncsc1-c1ccc(CNC(=O)[C@@H]2C[C@@H](O)CN2C(=O)C(c2cc(OCCCCN3CCC(c4cnc(N5CCN6c7cc(-c8ccccc8O)nnc7NC[C@@H]6C5)nc4)CC3)no2)C(C)C)cc1 (some centres unmarked) | SMARCA4 (Homo sapiens) | > 90% |

src = patent US20250170248A1
